# settings: cell viability/%
Where a SMILES comes first, the peptide text is derived from it. [ ]: non-standard residue; d: D form. The star is where a group is joined. NHCH2CH2OH = OCCN*; For = O=C*
reported_property: viability (%)
Answer format: numeric, % implied, no suffix.

CC(C)C[C@@H](NC(=O)[C@H](C)NC(=O)[C@H](NC(=O)[C@H](C)NC(=O)CNC(=O)[C@@H](NC=O)C(C)C)C(C)C)C(=O)N[C@H](C(=O)N[C@@H](C(=O)N[C@@H](Cc1c[nH]c2ccccc12)C(=O)N[C@@H](C(=O)N[C@@H](Cc1c[nH]c2ccccc12)C(=O)N[C@@H](C(=O)N[C@@H](Cc1c[nH]c2ccccc12)C(=O)N[C@@H](C(=O)N[C@@H](Cc1c[nH]c2ccccc12)C(=O)NCCO)C(C)C)C(C)C)C(C)C)C(C)C)C(C)C [compound 7690] (For-VGA[dV]A[dL]V[dV]W[dV]W[dV]W[dV]W-NHCH2CH2OH) = 100

Challenge: Would you kindly share the measured viability for CNC(=O)C[C@@H](NC(=O)[C@H](Cc1c[nH]c2ccccc12)NC(=O)[C@@H](CC(C)C)NC(=O)[C@@H](NC(=O)[C@@H](CC(C)C)NC(=O)[C@H](C)NC(=O)[C@@H](CC(C)C)NC(=O)[C@H](C)NC(=O)CNC(=O)[C@@H](NC=O)C(C)C)C(C)C)C(=O)N[C@@H](Cc1c[nH]c2ccccc12)C(=O)N[C@@H](C(=O)N[C@@H](Cc1c[nH]c2ccccc12)C(=O)N[C@H](CC(C)C)C(=O)N[C@@H](Cc1c[nH]c2ccccc12)C(=O)NCCO)C(C)C [compound 2432] (For-VGA[dL]A[dL]V[dL]W[dD](NHMe)W[dV]W[dL]W-NHCH2CH2OH) ?
Response given: 100

###

# System: P388 mouse leukemia cells
# settings: 92 h
Where a SMILES comes first, the peptide text is derived from it. [ ]: non-standard residue; d: D form. The star is where a group is joined. NHCH2CH2OH = OCCN*; For = O=C*
reported_property: cell viability/% (%)
Answer with a number only, understood to be in %.

Challenge: So what cell viability/% did CC(C)C[C@@H](NC(=O)[C@H](Cc1c[nH]c2ccccc12)NC(=O)[C@H](NC(=O)[C@H](Cc1c[nH]c2ccccc12)NC(=O)[C@@H](CC(C)C)NC(=O)[C@@H](NC(=O)[C@H](NC(=O)[C@H](C)NC(=O)[C@H](NC(=O)[C@H](C)NC(=O)CNC(=O)[C@@H](NC=O)C(C)C)C(C)C)C(C)C)C(C)C)C(C)C)C(=O)N[C@@H](Cc1c[nH]c2ccccc12)C(=O)N[C@@H](C(=O)N[C@@H](Cc1c[nH]c2ccccc12)C(=O)NCCO)C(C)C [compound 2554] (For-VGA[dV]A[dV]V[dL]W[dV]W[dL]W[dV]W-NHCH2CH2OH) get with P388 mouse leukemia cells?
Response given: 9.2

###

# System: P388 mouse leukemia cells
# settings: 92 h
Where a SMILES comes first, the peptide text is derived from it. [ ]: non-standard residue; d: D form. The star is where a group is joined. NHCH2CH2OH = OCCN*; For = O=C*
# Lookup of reported cell viability/% keyed by entry
Please don't drop the unit; write it after the number.

CC(C)[C@H](NC=O)C(=O)NCC(=O)N[C@@H](C)C(=O)N[C@@H](C(=O)N[C@@H](C)C(=O)N[C@@H](C(=O)N[C@H](C(=O)N[C@@H](C(=O)N[C@@H](Cc1c[nH]c2ccccc12)C(=O)N[C@@H](C(=O)N[C@@H](Cc1c[nH]c2ccccc12)C(=O)N[C@@H](C(=O)N[C@@H](Cc1c[nH]c2ccccc12)C(=O)N[C@@H](C(=O)N[C@@H](Cc1c[nH]c2ccccc12)C(=O)NCCO)C(C)C)C(C)C)C(C)C)C(C)C)C(C)C)C(C)C)C(C)C [compound 10276] (For-VGA[dV]A[dV]V[dV]W[dV]W[dV]W[dV]W-NHCH2CH2OH) = 100.0%
CNC(=O)C[C@@H](NC(=O)[C@@H](NC(=O)[C@H](NC(=O)[C@H](C)NC(=O)[C@@H](CC(C)C)NC(=O)[C@H](C)NC(=O)CNC(=O)[C@@H](NC=O)C(C)C)C(C)C)C(C)C)C(=O)N[C@@H](Cc1c[nH]c2ccccc12)C(=O)N[C@@H](C(=O)N[C@@H](Cc1c[nH]c2ccccc12)C(=O)N[C@H](CC(C)C)C(=O)N[C@@H](Cc1c[nH]c2ccccc12)C(=O)N[C@H](CC(C)C)C(=O)N[C@@H](Cc1c[nH]c2ccccc12)C(=O)NCCO)C(C)C [compound 7808] (For-VGA[dL]A[dV]V[dD](NHMe)W[dV]W[dL]W[dL]W-NHCH2CH2OH) = 100.0%

Challenge: So what's the measured cell viability/% for this one? CC(C)C[C@@H](NC(=O)[C@H](C)NC(=O)[C@H](NC(=O)[C@H](C)NC(=O)CNC(=O)[C@@H](NC=O)C(C)C)C(C)C)C(=O)N[C@H](C(=O)N[C@H](CC(C)C)C(=O)N[C@@H](Cc1c[nH]c2ccccc12)C(=O)N[C@H](CC(C)C)C(=O)N[C@@H](Cc1c[nH]c2ccccc12)C(=O)N[C@@H](C(=O)N[C@@H](Cc1c[nH]c2ccccc12)C(=O)N[C@H](CC(C)C)C(=O)N[C@@H](Cc1c[nH]c2ccccc12)C(=O)NCCO)[C@H](C)O)C(C)C [compound 4209] (For-VGA[dV]A[dL]V[dL]W[dL]W[dT]W[dL]W-NHCH2CH2OH)
Response given: 96.2%
